We begin with a simple list: items and their reported EC50, CreLuc reporter, 100% hP.
Molecular target: T1, human neuropeptide Y2 receptor (human, UniProt P49146 1-381)
T1 sequence (looked up): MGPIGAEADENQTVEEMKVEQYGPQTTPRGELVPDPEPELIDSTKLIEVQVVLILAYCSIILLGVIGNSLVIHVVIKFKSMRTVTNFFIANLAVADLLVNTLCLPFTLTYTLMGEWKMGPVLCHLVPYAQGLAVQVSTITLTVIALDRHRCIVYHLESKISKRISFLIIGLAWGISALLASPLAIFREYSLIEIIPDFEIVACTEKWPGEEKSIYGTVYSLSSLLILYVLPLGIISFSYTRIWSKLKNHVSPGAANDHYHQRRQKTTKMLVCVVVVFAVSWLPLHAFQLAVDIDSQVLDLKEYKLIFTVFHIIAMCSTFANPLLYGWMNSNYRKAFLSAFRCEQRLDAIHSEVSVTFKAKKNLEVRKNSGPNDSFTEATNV
Assay: cell-based or functional assay
*1 amine or outer side, *2 acyl side, *3 side chain or, on linkers, in order; H or OH if unused. Where no end group is shown, it is not given here. Side-chain parts run from the residue outwards. [ ]: non-standard residue; d: D form. The star is where a group is joined. C20 diacid = O=C(O)CCCCCCCCCCCCCCCCCCC(=O)*; C18 diacid = O=C(O)CCCCCCCCCCCCCCCCC(=O)*; γGlu = O=C(O)[C@H](CCC(=O)[*:2])N[*:1]; εLys = N[C@@H](CCCCN[*:1])C(=O)[*:2]; Aib = CC(C)(N)C(=O)O
quantity.kind: EC50, CreLuc reporter, 100% hP (nM)

[[record]]
binder = "YXEGTFTSDYSIXLEKQAQXEFVRHLINKXTRQRY (Aib at 2, 13, 20, 30; Lys29 epsilon-amino: C18DA-gGlu-gGlu-gGlu-gGlu-gGlu-gGlu-eLys; C-terminal amide) [Compound 145]"
unit_abbrev = "nM"
endpoint_result = 94.2

[[record]]
binder = "YXEGTFTSDYSIXLEKQAQXAFVRHLINKXTRQRY (Aib at 2, 13, 20, 30; Lys29 epsilon-amino: C18DA-gGlu-gGlu-gGlu-gGlu-gGlu-gGlu-eLys; C-terminal amide) [Compound 92]"
unit_abbrev = "nM"
endpoint_result = 22.6

[[record]]
binder = "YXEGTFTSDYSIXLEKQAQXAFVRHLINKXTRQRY (Aib at 2, 20, 30; aMeL at 13; Lys29 epsilon-amino: C18DA-gGlu-gGlu-gGlu-gGlu-gGlu-gGlu-eLys; C-terminal amide) [Compound 119]"
unit_abbrev = "nM"
endpoint_result = 43.7

[[record]]
binder = "YXEGTFTSDYSIXLEKQAQXAFVRHLINKATRQRY (Aib at 2, 13, 20; Lys29 epsilon-amino: C18DA-gGlu-gGlu-gGlu-gGlu-gGlu-gGlu-eLys; C-terminal amide) [Compound 159]"
unit_abbrev = "nM"
endpoint_result = 57.5

[[record]]
binder = "YXEGTFTSDYSILLEKQAQXAFVRHLINKXTRQRY (Aib at 2, 20, 30; Lys29 epsilon-amino: C18DA-gGlu-gGlu-gGlu-gGlu-gGlu; C-terminal amide) [Compound 122]"
unit_abbrev = "nM"
endpoint_result = 284

[[record]]
binder = "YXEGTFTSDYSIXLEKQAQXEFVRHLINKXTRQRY (Aib at 2, 13, 20, 30; Lys29 epsilon-amino: C20DA-gGlu-gGlu-gGlu-gGlu-gGlu-gGlu-eLys; C-terminal amide) [Compound 149]"
unit_abbrev = "nM"
endpoint_result = 166

[[record]]
binder = "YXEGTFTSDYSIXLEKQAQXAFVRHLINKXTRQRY (Aib at 2, 13, 20, 30; Lys29 epsilon-amino: C18DA-TRX-gGlu-gGlu-gGlu-gGlu-gGlu-gGlu-eLys; C-terminal amide) [Compound 137]"
unit_abbrev = "nM"
endpoint_result = 46.4

[[record]]
binder = "YXEGTFTSDYSIXLDKQAQXEFVRHLINKXTRQRY (Aib at 2, 13, 20, 30; Lys29 epsilon-amino: C18DA-gGlu-gGlu-gGlu-gGlu-gGlu-gGlu-eLys; C-terminal amide) [Compound 131]"
unit_abbrev = "nM"
endpoint_result = 85.9

[[record]]
binder = "Y[Aib]EGTFTSDYSI[Aib]LEKQAQ[Aib]EFVRHLINK([εLys-γGlu-γGlu-γGlu-γGlu-C18 diacid])[Aib]TRQRY-NH2 [Compound 163]"
unit_abbrev = "nM"
endpoint_result = 218

[[record]]
binder = "YXEGTFTSDYSIXLEKQAQYAFVRHLINKXTRQRY (Aib at 2, 13, 30; Lys29 epsilon-amino: C18DA-gGlu-gGlu-gGlu-gGlu-gGlu-gGlu-eLys; C-terminal amide) [Compound 151]"
unit_abbrev = "nM"
endpoint_result = 89.8

[[record]]
binder = "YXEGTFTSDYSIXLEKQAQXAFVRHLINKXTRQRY (Aib at 2, 13, 20, 30; Lys29 epsilon-amino: C18DA-gGlu-gGlu-gGlu-gGlu-gGlu-OEG; C-terminal amide) [Compound 140]"
unit_abbrev = "nM"
endpoint_result = 141

[[record]]
binder = "Y[Aib]EGTFTSDLSI[Aib]LEKQAQ[Aib]AFVRHLINK([εLys-γGlu-γGlu-γGlu-γGlu-γGlu-γGlu-γGlu-C20 diacid])[Aib]TRQRY-NH2 [Compound 135]"
unit_abbrev = "nM"
endpoint_result = 47.8

